Test system: HepG2
Procedure Details: GSK_TCMDC: Percent inhibition of human HepG2 cell line. Test compounds present at 10uM.
Format: functional
Parameter threshold = 30%. Response is Y when Inhibition meets or exceeds it, else N.

# Molecule, Experimental Target, Assigned Label
data = [
    ("Cc1cc(N[C@@H](Cc2ccccc2)C(=O)NCc2cccc(F)c2)nc(NCCc2cccnc2)n1.O=C(O)C(F)(F)F", "HepG2", "N"),
    ("CCCCNCc1ccc(-c2nc(CN(CCCn3ccnc3)C(=O)Nc3ccc(CC)cc3)cs2)cc1.O=C(O)C(F)(F)F", "HepG2", "N"),
    ("COC(=O)c1cccc(N2CCN(CCCNC(=O)/C(=C/C=C/c3cc4cc(Cl)c(Cl)cc4[nH]3)OC)CC2)c1.Cl", "HepG2", "Y"),
    ("NCCNC(=O)c1ccc(-c2cnc3[nH]cc(-c4ccc(C(N)=O)cc4)c3c2)cc1", "HepG2", "N"),
    ("Cc1ccnc2nc(C(=O)Nc3cc(C(F)(F)F)ccc3N3CCCCC3)nn12", "HepG2", "N"),
    ("CC(C)(C)COc1ccc2c(N)n[nH]c2c1.Cl", "HepG2", "Y"),
    ("COc1cc(CN2CCC(C(=O)Nc3ccc(-c4cccc(C)c4)cc3)CC2)ccc1O", "HepG2", "N"),
    ("CCC(C)c1ccc(NC(=O)Nc2ccnc3ccccc23)cc1.Cl (stereo not drawn)", "HepG2", "N"),
    ("CCCCCCn1c(Sc2ccc(C#N)c([N+](=O)[O-])c2)nnc1-c1ccc(Cl)cc1", "HepG2", "N"),
    ("FC(F)(F)c1ccc2[nH]c(-c3ccc(-c4ccc(CNCc5cnn(-c6ccccc6)n5)cc4)cc3)nc2c1.O=C(O)C(F)(F)F", "HepG2", "Y"),
    ("Br.CC1(C)N=C(N)N=C(N)N1OCc1cccc(C#N)c1", "HepG2", "Y"),
    ("Cl.O=C(CCCC(=O)Nc1ccc(C2=NCCN2)cc1)Nc1ccc(C2=NCCN2)cc1", "HepG2", "N"),
    ("Cc1csc(-c2nonc2NC(=O)COc2ccccc2C(C)C)n1", "HepG2", "N"),
    ("CCc1c(CCNCCCCCCNC(C)Cc2ccc3c(c2CC)OCO3)ccc(OC)c1OC.Cl (stereo not drawn)", "HepG2", "Y"),
    ("Cc1cc(-c2cnc(N)c(-c3ccc(N4CCN(C)CC4)cc3)c2)cc(C)c1O", "HepG2", "N"),
    ("Cc1cc(NCCCCCCNc2cc(C)nc3c(C)cccc23)c2cccc(C)c2n1.Cl", "HepG2", "N"),
    ("O=S(=O)(c1cc(Cl)sc1Cl)N(CCC(O)(C(F)(F)F)C(F)(F)F)Cc1cccc(O)c1", "HepG2", "N"),
    ("CC(C)CCNC(=O)C1Cc2c([nH]c3cc(Cl)ccc23)C2(CCN(CCc3ccccc3)CC2)N1 (stereo not drawn)", "HepG2", "N"),
    ("Cl.N=C(N)c1ccc(-c2cc3ccc(C(=N)N)cc3[nH]2)cc1", "HepG2", "N"),
    ("CCCCCCCCCCS(=O)(=O)N[C@H](COCc1cccc(Oc2ccccc2)c1)COP(=O)([O-])OC.[Li+]", "HepG2", "N"),
    ("CCNC(=O)Nc1ccc(-c2cccc(-c3nc4cccc(C)c4[nH]3)c2)cc1", "HepG2", "N"),
    ("COc1ccc(C2CCC(NCCCCNC(=O)c3ccc(NC(=O)c4ccc(Cl)cc4)cc3)CC2)cc1 (stereo not drawn)", "HepG2", "N"),
    ("Cc1cccc2nc(-c3ccc(-c4ccc(NC(=O)Nc5ccc(Cl)c(Cl)c5)cc4)s3)[nH]c12", "HepG2", "Y"),
    ("Cc1cc(=O)c2cc(Oc3cccc(OC(F)(F)F)c3)ccc2[nH]1", "HepG2", "N"),
    ("COc1cc(F)c2ncc(Cl)c(CCN3CCC(NCc4ccc5c(c4)NC(=O)CO5)CC3)c2c1.Cl", "HepG2", "Y"),
    ("CC(C)(C)OC(=O)NCc1ccc(Nc2nnc(-c3cccc(C(=O)NCCC(c4ccccc4)c4ccccc4)c3)o2)cc1", "HepG2", "N"),
    ("COc1ccc(CN(C)CCCc2ccc(NC(=O)c3cccc4c(O)c5ccccc5nc34)cc2)cc1OC", "HepG2", "Y"),
    ("O=C(CCc1cccnc1)Nc1cccc(-c2ccc(-c3nc4cc(C(F)(F)F)ccc4[nH]3)cc2)c1", "HepG2", "Y"),
    ("N#Cc1ccc(C=NNc2nc3ccccc3[nH]2)cc1", "HepG2", "N"),
    ("CN1CCN(c2ccnc3ccc(NC(=O)Nc4cccc(C#N)c4)cc23)CC1", "HepG2", "N"),
    ("CC1CCN(Cc2c(O)ccc3c(O)c(-c4nc5ccccc5s4)c(=N)oc23)CC1", "HepG2", "N"),
    ("Cc1cc2nc(-c3ccc(/C=C/C(=O)NC4CCCCC4)cc3)[nH]c2cc1C", "HepG2", "N"),
    ("Br.CC(C)Oc1ccc(CCCON2C(=N)N=C(N)NC2(C)C)cc1", "HepG2", "Y"),
    ("Oc1ccc(Nc2ccnc3cc(Cl)ccc23)cc1", "HepG2", "N"),
    ("CCC1CCCCN1S(=O)(=O)c1ccc(NC(=O)c2cc(C)on2)cc1 (stereo not drawn)", "HepG2", "N"),
    ("CCCCCCP(=O)(COc1ccc(CCN(CC(O)COc2cccc3[nH]c(C(N)=O)cc23)CC(O)COc2cccc3[nH]c(C(N)=O)cc23)cc1)OCCCC (stereo not drawn)", "HepG2", "N"),
    ("CC1(CCN2CCC(c3c[nH]c4cnccc34)CC2)CCCc2c(Br)cccc2C1=O.Cl (stereo not drawn)", "HepG2", "N"),
]
